test system: SNK-6 (IL-2 2.5 ng/mL); experiment: relative IC50 (inflection point of fitted viability curve, relative to fitted max inhibition); higher = less sensitive; conditions: 72 h
Exercise: state measured relative IC50 for each of the molecules provided.
Give the quantity in nM, number only.

Problem: relative IC50 for O=C(/C=C/c1cccnc1)NCCCCC1CCN(C(=O)c2ccccc2)CC1 ?
Result: 0.75

Problem: Please report the recorded relative IC50 for Cc1cc(Nc2cc(CN3CCOCC3)c3nc(C)c(Cc4ccc(Cl)cc4F)n3n2)n[nH]1 .
Result: 230

Problem: Query: relative IC50; subject: O=C(/C=C\n1cnc(-c2cc(C(F)(F)F)cc(C(F)(F)F)c2)n1)NNc1cnccn1 [Selinexor]
Result: 48.3

Problem: State the recorded relative IC50 for this entry: CC[C@]1(O)C[C@@H]2CN(CCc3c([nH]c4ccccc34)[C@@](C(=O)OC)(c3cc4c(cc3OC)N(C)[C@H]3[C@@](O)(C(=O)OC)[C@H](OC(C)=O)[C@]5(CC)C=CCN6CC[C@]43[C@@H]65)C2)C1
Result: 5.22

Problem: Which measured relative IC50 value corresponds to CC(C)Oc1ccc(C(=O)N[C@H](CNC(=O)CN(C)C)Cc2ccc(-c3cn4cccc([C@H](C)O)c4n3)cc2)cc1Cl ?
Result: 24.9

Problem: Could you tell me which relative IC50 is on file for COC(=O)C[C@](O)(CCCC(C)(C)O)C(=O)O[C@@H]1C(OC)=C[C@]23CCCN2CCc2cc4c(cc2[C@H]13)OCO4 ?
Result: 6.73

Problem: I have this molecule here, CN(C)c1cc2c(cc1Sc1nc3c(N)nccc3n1CCNCC(C)(C)C)OCO2 , and I need its recorded relative IC50.
Result: 328

Problem: Entry O=C1NC(=O)/C(=C/c2ccc3nccc(-c4ccncc4)c3c2)S1 : reported relative IC50 = ?
Result: 1100

Problem: For the molecule Cc1[nH]c2ccccc2c1CCNCc1ccc(/C=C/C(=O)NO)cc1 , what relative IC50 is on record?
Result: 14.3

Problem: # relative IC50 lookup, item C[C@@H]1C=C2C(=O)O[C@@H]3CC[C@H](C1)[C@]23O
Result: 3970

Problem: Fill in: relative IC50 of COc1cc(O)c2c(c1)/C=C/C[C@H](O)[C@H](O)C(=O)/C=C\C[C@H](C)OC2=O is ___
Result: 1560

Problem: Quick one: relative IC50 for O=C(c1ccc(/C=C/c2n[nH]c3ccccc23)cc1)N1CCNCC1 ?
Result: 687

Problem: Which relative IC50 is reported for this molecule? O=C(O)c1ccc(O)c2ncccc12
Result: 20200

----------
tested on: normal primary NK cells, pool 1 (3 donors), resting (IL-2 0 ng/mL); assay: percent inhibition of viability; higher = more inhibition; details: 72 h; 10000 nM;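 note: normalised to DMSO-only wells as negative and benzethonium chloride as positive control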
Lab note: cut-off is 40%. Strictly less in percent inhibition of viability is label 1. Exactly 40% or more is label 0.

Problem: Determine whether this molecule shows percent inhibition of viability lower than 40% (ties excluded): CNC(=O)c1cccc2cc(Oc3ccnc4cc(OCC5(N)CC5)c(OC)cc34)ccc12 [Lucitanib] (max concentration tested 10000 nM)
Result: label 1

Problem: Is percent inhibition of viability of S=c1[nH]cnc2nc[nH]c12 [Mercaptopurine] (max concentration tested 10000 nM) strictly below 40%?
Result: label 1

Problem: # strict comparison: is reported percent inhibition of viability < 40%? input = CN(c1ccccc1CNc1nc(Nc2ccc3c(c2)CC(=O)N3)ncc1C(F)(F)F)S(C)(=O)=O (max concentration tested 10000 nM)
Result: label 0

Problem: Find out if reported percent inhibition of viability for O=c1[nH]c(=O)n([C@H]2C[C@H](O)[C@@H](CO)O2)cc1F [Floxuridine] (max concentration tested 10000 nM) is less than 40%
Result: label 1

Problem: Please state whether percent inhibition of viability is below 40% for COc1ccc(C[C@H](NC(=O)[C@H](C)NC(=O)CN2CCOCC2)C(=O)N[C@@H](Cc2ccccc2)C(=O)C2(C)CO2)cc1 (stereo in doubt) [ONX-0914] (max concentration tested 10000 nM)
Result: label 0

Problem: Item CN(C)c1nc(N(C)C)nc(N(C)C)n1 [Altretamine] (max concentration tested 10000 nM) : percent inhibition of viability beneath 40%, strictly?
Result: label 1

Problem: percent inhibition of viability strictly < 40% for this molecule? CCCOc1ccn2c(C(C)=O)cc(-c3ccccc3S(C)(=O)=O)c2c1 [GSK2801] (max concentration tested 10000 nM)
Result: label 1

Problem: Does COc1cc(O)c2c(c1)/C=C/C[C@H](O)[C@H](O)C(=O)/C=C\C[C@H](C)OC2=O [(5Z)-7-Oxozeaenol] (max concentration tested 10000 nM) have percent inhibition of viability strictly under 40%?
Result: label 0

Cited source for all entries: the supplement of paper PMC5908809
